# Tested on: HepG2
# PROTOCOL_DETAILS: cell viability relative to DMSO; higher = less toxic
# ASSAY_SETUP: 72 h; 10000 nM
QUANTITY_NAME: cell viability (%)
Just the number please, in %, no unit attached.

Q: Which cell viability is listed for COc1cc(OC)c(/C=C2/C(=O)Nc3ccccc32)c(OC)c1 ?
Result: 37.1

Q: Let us now turn to CCC(C(=O)O)c1ccc(CC(C)C)cc1 (configuration not stated)
Result: 106

Q: Now consider CCOC(=O)[C@H](CCc1ccccc1)N[C@H]1CS[C@H](c2cccs2)CN(CC(=O)O)C1=O and answer again.
Result: 112

Q: Also CC(C(=O)O)c1ccc2c(c1)[nH]c1ccc(Cl)cc12 (configuration not stated) , if possible.
Result: 99.6

Q: // query: CN1C(=O)N(C)C2C1N(C)C(=O)N2C (configuration not stated)
Result: 92.2

Q: Now consider O=C1O[C@H](CO)[C@@H](O)[C@H](O)[C@H]1O and answer again.
Result: 94.5

Q: Another: Fc1ccc(-c2c3cccc(C(F)(F)F)c3nn2Cc2ccc(F)cc2Cl)cc1
Result: 77.2

Q: Try this compound too: CCCC(=O)C1(c2ccccc2)CCN(C(=O)[C@@H](Cc2ccc(OC)cc2)NC(=O)[C@@H](N)Cc2cncn2C)CC1
Result: 95.3

Q: Also, OB1OCc2cc(Cl)ccc21 please.
Result: 108

Q: What do you get for CCC(=O)OCC(=O)[C@@]1(OC(=O)CC)[C@H](C)C[C@H]2[C@H]3[C@H]([C@@H](O)C[C@@]21C)[C@@]1(C)C=CC(=O)C=C1C[C@H]3Cl [alclometasone-dipropionate] ?
Result: 91.1

Q: Could you do the same for Cc1ccc(-c2ncn(-c3ccc(Nc4nccc(-c5cccc(N6CCOCC6)c5)n4)cc3)n2)cn1 , please?
Result: 40.9

Q: Then Cc1ccc(C23CNCC2C3)cc1 (configuration not stated) ?
Result: 94.7

Q: Now give it for Cc1[nH]c2ccccc2c1CCNC(=O)c1cccs1 too.
Result: 104

Q: Next compound up: COc1cc(C[C@@H]2NCCc3cc(O)c(O)cc32)cc(OC)c1OC
Result: 83.5

Q: Also, CC(C)[C@](O)(c1ccc2cc(OC(F)F)c(OC(F)F)cc2c1)c1c[nH]nn1 please.
Result: 90.8

Q: Okay, and Cc1cc(-n2c(=O)[nH]c(=O)n(C)c2=O)ccc1Oc1ccc(SC(F)(F)F)cc1 ?
Result: 102

Q: Try this compound next: CCCCCNC(=N)N/N=C/c1c[nH]c2ccc(OC)cc12
Result: 114

Q: Next compound: Oc1ccc(C2CNCCc3c2cc(O)c(O)c3Cl)cc1 (configuration not stated)
Result: 94.8

Q: Follow-up entry: N#Cc1cnc2c(Cl)cc(NCc3cn(CCN4CCCCCC4)nn3)cc2c1Nc1ccc(F)c(Cl)c1
Result: 80.6

Q: Also check O=C(NCCS(=O)(=O)c1ccc(C(F)(F)F)cn1)c1ccc(Cl)cc1
Result: 102

Q: Also O=C1CCC[C@@H]2[C@H]3CCCN4CCC[C@@H](CN12)[C@@H]34 , if possible.
Result: 103

Q: Input CNC(=O)[C@@H](c1ccccc1)N1CCc2cc(OC)c(OC)cc2[C@@H]1CCc1ccc(C(F)(F)F)cc1
Result: 94.1

Q: Note, next up: CCc1cnc(N2CCC(c3nc(COc4ccc(-n5cnnn5)cc4)cs3)CC2)nc1
Result: 36

Q: How about O=c1[nH]ccc2cc(OC3CCNCC3)ccc12 ?
Result: 106

Q: Record: COc1cc2c(NC3CCN(C4CCCCC4)CC3)nc(N3CCCN(C(C)C)CC3)nc2cc1OCCCN1CCCCC1
Result: 65.3

Q: Consider next the compound Cn1cc(C2=C(c3cn(CCCSC(=N)N)c4ccccc34)C(=O)NC2=O)c2ccccc21 [bisindolylmaleimide-IX] in the same way.
Result: 5.1

Q: Then what about the compound CN(NC(=O)CC(=O)NN(C)C(=S)c1ccccc1)C(=S)c1ccccc1 ?
Result: 82.1

Q: Same for CN(C)CCOc1ccc(/C(=C(/CCCl)c2ccccc2)c2ccccc2)cc1
Result: 29.9

Q: Another compound to look at: NC(=O)c1cnc(N[C@@H]2CCCC[C@@H]2N)nc1Nc1cccc(-n2nccn2)c1
Result: 31.7

Q: Moving on to the next compound: CCCOC(=O)c1ccccc1 [propyl-benzoate]
Result: 94.4

Q: Again, but for O=C(O)c1cc(=O)c2c(OCC(O)COc3cccc4oc(C(=O)O)cc(=O)c34)cccc2o1
Result: 101

Q: What do you get for NCC(=O)O ?
Result: 101

Q: // next record COc1ccc(NC(=O)c2ccc(C(=N)N(C)C)cc2)c(C(=O)Nc2ccc(Cl)cn2)c1
Result: 100

Q: Request: CCN1CCN(Cc2ccc(Nc3ncc(F)c(-c4cc(F)c5nc(C)n(C(C)C)c5c4)n3)nc2)CC1
Result: 0.9

Q: Request: NC(=O)C[C@H](N)C(=O)O
Result: 93.7

Q: Moving on to Nc1ccc(/N=N/c2ccccc2)c(N)n1
Result: 100

Q: Try CC(C)(C)c1ccc(/C=C/C(=O)Nc2ccc3c(c2)OCCO3)cc1 next.
Result: 33.1

All figures here come from the supplement of paper PMC13380429.
